- Tested on: 997537-175-T-J1-PDC complex spheroid viability;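 note: spheroids exposed to the agents for 7 days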
- Assay Details: Anticancer human tumor 997537-175-T-J1-PDC patient-derived colon adenocarcinoma cell line growth inhibition [GQUAD]
- Conditions: curve of first compound; second compound 0.0316 µM
Each entry below carries its reported pIC50.
Please express pIC50 as -log10 of the molar concentration.

Exam item: Looking for the measured pIC50 of CCCS(=O)(=O)Nc1ccc(F)c(C(=O)c2c[nH]c3ncc(-c4ccc(Cl)cc4)cc23)c1F + Cc1cnc(CNC(=O)c2c(=O)c3ccc(N4CCCN(C)CC4)nc3n3c2sc2ccccc23)cn1 , can you help?
Marked response: 5.72

Now for a further compound.
Exam item: Looking for the measured pIC50 of CCCS(=O)(=O)Nc1ccc(F)c(C(=O)c2c[nH]c3ncc(-c4ccc(Cl)cc4)cc23)c1F + CN(C)c1ccc(Nc2c3ccc(NC(=O)CCN4CCCC4)cc3nc3cc(NC(=O)CCN4CCCC4)ccc23)cc1 , can you help?
Marked response: 5.66
